Biological target: T1, recombinant human galectin-13 (human, UniProt Q9UHV8 1-139, biotinylated for the phage ELISA; labeled with FITC for the HepG2 cell binding assay)
T1 sequence (looked up): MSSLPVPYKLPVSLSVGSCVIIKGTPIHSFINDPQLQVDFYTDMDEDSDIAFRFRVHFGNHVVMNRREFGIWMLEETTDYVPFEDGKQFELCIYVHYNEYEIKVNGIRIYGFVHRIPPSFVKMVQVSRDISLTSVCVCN
Assay: cell-based or functional assay
Outcome: True for inhibition of galectin-13-induced apoptosis of Jurkat T cells of at least -30%; False for anything lower.

* G13N1 (VHH, not shown: small tags and cut ends) VHH: EVQLQASGGGFVQPGGSLRLSCAASGFGSNRSTMGWFRQAPGKEREFVSAISSLSSDPPYYADSVKGRFTISRDNSKNTVYLQMNSLRAEDTATYYCAPAGMRGVMEYWGQGTQVTVSS | True
* G13N4 (VHH, not shown: small tags and cut ends) VHH: EVQLQASGGGFVQPGGSLRLSCAASGSSYAGSAMGWFRQAPGKEREFVSAISSDPDTKAYYADSVKGRFTISRDNSKNTVYLQMNSLRAEDTATYYCAISGQYPYARYWGHGTQVTVSS | False

Given the entry G13N5 (VHH, not shown: small tags and cut ends) VHH: EVQLQASGGGFVQPGGSLRLSCAASGYTSNEDSMGWFRQAPGKEREFVSAISRGPSFRTYYADSVKGRFTISRDNSKNTVYLQMNSLRAEDTATYYCAIRLGRLYRYGDLTPKSAYYWGQGTQVTVSS , answer whether its inhibition of galectin-13-induced apoptosis of Jurkat T cells meets or surpasses -30%.
False

Can G13N3 (VHH, not shown: small tags and cut ends) VHH: EVQLQASGGGFVQPGGSLRLSCAASGRGSRWYGMGWFRQAPGKEREFVSAISAQHSTRAYYADSVKGRFTISRDNSKNTVYLQMNSLRAEDTATYYCAGYMSKMGERKWKYWGQGTQVTVSS be said to have inhibition of galectin-13-induced apoptosis of Jurkat T cells at or above -30%?
True

Does G13N6 (VHH, not shown: small tags and cut ends) VHH: EVQLQASGGGFVQPGGSLRLSCAASGRTSSLTSMGWFRQAPGKEREFVSAISFSGSMFTYYADSVKGRFTISRDNSKNTVYLQMNSLRAEDTATYYCADKWMHKPANYWGQGTQVTVSS have a reported inhibition of galectin-13-induced apoptosis of Jurkat T cells of at least -30%?
True

Item G13N9 (VHH, not shown: small tags and cut ends) VHH: EVQLQASGGGFVQPGGSLRLSCAASGRGSALTTMGWFRQAPGKEREFVSAISGDTGLYVYYADSVKGRFTISRDNSKNTVYLQMNSLRAEDTATYYCAGKWLGGRQADTRYWGQGTQVTVSS with inhibition of galectin-13-induced apoptosis of Jurkat T cells of -30% or above?
False
